- Tested on: HT-29
- Method description: Antiproliferative activity against human HT-29 cells at 10 to 100 uM incubated for 72 to 120 hrs by MTT assay
- Format: functional, cell-based
- Settings: dose 10-100 µM, time 72-120 hrs
Activity calls are given as the source filed them. The rule behind the calls is not given here.
Value kind: Activity

{"Compound structure": "O=C(O)c1cnc(SCCc2ccccc2)[nH]c1=O", "Value kind": "Activity", "Test value": "inactive"}
{"Compound structure": "O=C(O)c1c[nH]c(=S)[nH]c1=O", "Value kind": "Activity", "Test value": "inactive"}
{"Compound structure": "O=C(O)c1cnc(SCCCc2ccccc2)[nH]c1=O", "Value kind": "Activity", "Test value": "inactive"}
